- tested_system: T1, hDicer PPC cassette (Homo sapiens, UniProt Q9UPY3 753-1068)
- T1 sequence: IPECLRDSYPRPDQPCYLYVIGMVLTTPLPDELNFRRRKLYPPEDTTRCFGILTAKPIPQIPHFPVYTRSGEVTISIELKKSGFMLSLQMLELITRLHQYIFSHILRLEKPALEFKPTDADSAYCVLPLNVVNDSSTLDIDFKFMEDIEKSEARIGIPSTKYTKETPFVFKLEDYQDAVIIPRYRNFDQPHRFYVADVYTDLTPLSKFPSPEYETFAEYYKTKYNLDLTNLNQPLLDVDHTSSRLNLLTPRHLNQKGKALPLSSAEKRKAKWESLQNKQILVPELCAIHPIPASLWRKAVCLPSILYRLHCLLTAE
- assay_explanation: EMSA; EMSA: 20 mM Tris-HCl pH 7.4, 100 mM KCl, 30 min on ice; 5% or 10% native PAGE at 4 C in 1x TBE; G-rich oligos folded in 50 mM KCl
- condition_info: protein: recombinant; tags: N-terminal 6xHis (pMCSG7); label: 5'-32P
observable: Kd

Note Kd for the binder shown: UCGAAGUAUUCCGCGUACGUG (ssRNA) [LIN21]
~46 nM
